- test.description: Manual CellTiter-Glo luminescent cell viability assay (7 d or 5 d)
- Type: cell-based, mouse
- setup.conditions: mouse, mESC-D3 cells, 7 d, in brackets the two individual experiments, read-out: Cytotoxicity assay CTG, 7 d IC50 mESC-D3
observed.property: IC50 at 7 d (µg/mL)
Give the value, in units of µg/mL, as a plain number.

Reported IC50 at 7 d, molecule Cn1c(=O)c2c(ncn2C)n(C)c1=O [Caffeine, caffeine] : ____ 119

What would you report for C[C@@H]1C[C@H]2[C@@H]3CCC4=CC(=O)C=C[C@]4(C)[C@@]3(F)[C@@H](O)C[C@]2(C)[C@@]1(O)C(=O)CO [Dexamethasone, dexamethasone] ? 20.8

What would you report for O=c1[nH]cc(F)c(=O)[nH]1 [5-Fluorouracil, 5-fluorouracil] ? 0.0681

====

- System: mESC-D3 and NIH/3T3 cells
- setup.conditions: manual murine EST assay; prediction model of Seiler and Spielmann 2011
observed.property: Compound classification

NC(=O)NO [Hydroxyurea, hydroxyurea]; strong embryotoxicity
O=c1[nH]cc(F)c(=O)[nH]1; strong embryotoxicity

====

- test.description: Manual CellTiter-Glo luminescent cell viability assay (7 d or 5 d)
- Type: cell-based, mouse
- setup.conditions: mouse, mESC-D3 cells, 5 d, in brackets the two individual experiments, read-out: Cytotoxicity assay CTG, 5 d IC50 mESC-D3
Please provide measured IC50 at 5 d for the entries that follow.
Give the value, in units of µg/mL, as a plain number.

Reported IC50 at 5 d, compound `O=C1NS(=O)(=O)c2ccccc21` : ____ 464

What would you report for `C[C@@H]1C[C@H]2[C@@H]3CCC4=CC(=O)C=C[C@]4(C)[C@@]3(F)[C@@H](O)C[C@]2(C)[C@@]1(O)C(=O)CO` ? 15.7

What would you report for `Cn1c(=O)c2c(ncn2C)n(C)c1=O` ? 172

What would you report for `O=c1[nH]cc(F)c(=O)[nH]1` ? 0.0493

====

- test.description: Manual CellTiter-Glo luminescent cell viability assay (7 d or 5 d)
- Type: cell-based, mouse
- setup.conditions: mouse, NIH/3T3 cells, 7 d, in brackets the two individual experiments, read-out: Cytotoxicity assay CTG, 7 d IC50 NIH/ 3T3
observed.property: IC50 at 7 d (mg/L)
Give the value, in units of mg/L, as a plain number.

Reported IC50 at 7 d, compound `C[C@@H]1C[C@H]2[C@@H]3CCC4=CC(=O)C=C[C@]4(C)[C@@]3(F)[C@@H](O)C[C@]2(C)[C@@]1(O)C(=O)CO` : ____ 35.2

What would you report for `O=c1[nH]cc(F)c(=O)[nH]1` ? 0.128

====

- test.description: Automated CellTiter-Glo luminescent cell viability (cytotoxicity) assay, 5 d
- setup.conditions: mouse, NIH/3T3 cells
observed.property: IC50 at 5 d

Reported IC50 at 5 d, compound C[C@@H]1C[C@H]2[C@@H]3CCC4=CC(=O)C=C[C@]4(C)[C@@]3(F)[C@@H](O)C[C@]2(C)[C@@]1(O)C(=O)CO [Dexamethasone, dexamethasone] : ____ > 50 µg/mL

What would you report for O=C1NS(=O)(=O)c2ccccc21 [Saccharin, saccharin] ? > 1000 µg/mL

What would you report for CC1(C)S[C@@H]2[C@H](NC(=O)Cc3ccccc3)C(=O)N2[C@H]1C(=O)O [Penicillin G, penicillin G] ? > 1000 µg/mL

What would you report for O=c1[nH]cc(F)c(=O)[nH]1 [5-Fluorouracil, 5-fluorouracil] ? 0.11 µg/mL

Source listed as paper PMC8012336.
